target: Delta-type opioid receptor (Homo sapiens); test: Displacement of [3H]DPDPE from human DOP expressed in CHO-K1 cell membrane incubated for 60 mins by Microscint-counting analysis; type: cell membranes
Sequence (P41143 whole entry): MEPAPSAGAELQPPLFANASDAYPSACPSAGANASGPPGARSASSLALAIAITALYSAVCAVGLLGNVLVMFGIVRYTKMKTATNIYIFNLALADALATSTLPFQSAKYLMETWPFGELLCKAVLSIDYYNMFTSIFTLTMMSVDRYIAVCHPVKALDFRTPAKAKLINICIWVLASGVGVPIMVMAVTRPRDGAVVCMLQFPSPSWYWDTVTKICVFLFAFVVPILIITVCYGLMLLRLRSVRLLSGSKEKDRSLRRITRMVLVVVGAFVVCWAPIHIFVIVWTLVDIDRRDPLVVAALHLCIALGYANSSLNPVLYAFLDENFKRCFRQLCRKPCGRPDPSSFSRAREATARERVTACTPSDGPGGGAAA
Each entry below carries its reported Ki.
Value expressed in nM; do not type the unit.

Previously resolved entries follow.
| line-notation | measurement-unit | Ki |
| --- | --- | --- |
| NC(=O)[C@@H]1CCC(=O)NCCCC[C@@H](NC(=O)[C@@H](N)Cc2ccc(O)cc2)C(=O)N[C@@H](Cc2c[nH]c3ccccc23)C(=O)N[C@@H](Cc2ccccc2)C(=O)N1 | nM | 83 |
| NC(=O)[C@@H]1CCCCNC(=O)CC[C@@H](NC(=O)[C@@H](N)Cc2ccc(O)cc2)C(=O)N[C@@H](Cc2ccccc2)C(=O)N[C@@H](Cc2ccccc2)C(=O)N1 | nM | 82 |
| NC(=O)CNC(=O)[C@@H]1CCC(=O)NCCCC[C@@H](NC(=O)[C@@H](N)Cc2ccc(O)cc2)C(=O)N[C@@H](Cc2c[nH]c3ccccc23)C(=O)N[C@@H](Cc2ccccc2)C(=O)N1 | nM | 127 |

Alright, here's another compound for you.
Task: Please give the measured Ki for this compound: "NC(=O)[C@@H]1CC(=O)NCCCC[C@@H](NC(=O)[C@@H](N)Cc2ccc(O)cc2)C(=O)N[C@@H](Cc2c[nH]c3ccccc23)C(=O)N[C@@H](Cc2ccccc2)C(=O)N1"
Output: 83

// data source = ChEMBL document CHEMBL5126521
